B1: Ankyrin repeat and SOCS box protein 14, residues 532 to 572; numbered along this chain, A6NK59 (parent)
chain: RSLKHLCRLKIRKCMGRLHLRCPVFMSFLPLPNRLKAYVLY

- Variants of: B1
- assay notes: abundance fitness (aPCA) (normalised: wild type 0, dead -1); higher = more abundant; growth selection in yeast, the domain comes from the species named
- reported conditions: Homo sapiens

mutation label	abundance fitness
K36R	-0.294
L9K	-0.234
R12K	0.129
P30C	0.197
R34K	-0.166
L6H	0.054
L29E	-0.672
R34Y	-0.155
K4Q	-0.425
V24C	0.251
K13Q	0.086
S27G	-0.075
H19E	-0.24
P30Y	-0.067
H5D	-0.293
L35K	-1.29
R12T	-0.224
